System: HOP-62
ASSAY DETAILS: NCI tumour cell line growth inhibition, 48 h
Calls of active or inactive are those of the source. Cut-off read from the data, not from the text of the source: active = GI50 up to about 1.1 µM and inactive = higher.
VALUE TYPE: GI50

MOLECULE | ASSAYED SYSTEM | GI50
COC(=O)c1cc(C)ccc1C1CN=NC12Cc1c(C)cc(C)cc1C2=O (stereo not drawn) | HOP-62 | 29 µM (inactive)
CCSC(=O)/C=C1\CN(C(=O)OC(C)(C)C)C1C(=O)OC(C)(C)C (stereo not drawn) | HOP-62 | 14.1 µM (inactive)
O=[N+]([O-])c1ccc(/C=C(/c2ccc([N+](=O)[O-])o2)S(=O)(=O)c2ccccc2)cc1 | HOP-62 | 50.6 µM (inactive)
O=C1C[C@@]23CCC4(CC2=CCC[C@H]3O1)OCCO4 | HOP-62 | > 100 µM (inactive)
CC1=NN(C(=O)c2ccccc2O)C(c2ccccc2Cl)C1C(=O)Nc1ccccc1 (stereo not drawn) | HOP-62 | 0.262 µM (active)

Input "O=C(O)c1ccc(NS(=O)(=O)Cc2ccccc2)cc1" , output reported GI50.
> 100 µM (inactive)

Input "COc1ccc(/C=C(/C)[N+](=O)[O-])cc1" , output reported GI50.
1.86 µM (inactive)

Input "O=P(c1ccccc1)(c1ccccc1)c1ccc2c(c1)OCCOCCOCCOCCO2" , output reported GI50.
> 100 µM (inactive)

Input O=C1CC(CC(OCc2ccccc2)C(COCc2ccccc2)OCc2ccccc2)CC(=O)N1 (stereo not drawn) , output reported GI50.
39.8 µM (inactive)

All figures here come from ChEMBL document CHEMBL1201862.
